System: panel of cancer cell lines
Test: Cell viability (CellTiter-Glo) dose-response across cancer cell line panel;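 further: after 72 h compound incubation with CellTiter-Glo ATP readout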
Type: cell-based, human
Details: Homo sapiens, HCC78, HCC-78
MEASUREMENT KIND: EC50 (nM)

I. NS(=O)(=O)OC[C@@H]1C[C@@H](n2ccc3c(N[C@H]4CCc5ccccc54)ncnc32)C[C@@H]1O
II. COCc1ccccc1NCc1ccc([C@H]2[C@@H](O)CCCc3cncn32)c(-c2ccccc2Cl)c1
I need your help: which of the pair I , II has higher EC50? Pick one and reply with its label.
II
(II: 2290 nM, I: 183 nM)

* * *

System: panel of cancer cell lines
Test: Cell viability (CellTiter-Glo) dose-response across cancer cell line panel;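 further: after 72 h compound incubation with CellTiter-Glo ATP readout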
Format: cell-based, human
Details: Homo sapiens, A549, A549
pEC50: −log10 of the molar value.
MEASUREMENT KIND: pEC50

P. COCc1ccccc1NCc1ccc([C@H]2[C@@H](O)CCCc3cncn32)c(-c2ccccc2Cl)c1
Q. CC(C)C[C@H](NC(=O)[C@H](Cc1ccccc1)NC(=O)c1cnccn1)B(O)O
R. NS(=O)(=O)OC[C@@H]1C[C@@H](n2ccc3c(N[C@H]4CCc5ccccc54)ncnc32)C[C@@H]1O
Could you please sort these 3 entries by pEC50 from high to low? Ranked list of labels, please, in the requested order.
Q, P, R
(Q: 7.51, P: 5.85, R: 5.44)

* * *

System: panel of cancer cell lines
Assay: Cell viability (CellTiter-Glo) dose-response across cancer cell line panel;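 further: after 72 h compound incubation with CellTiter-Glo ATP readout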
Assay type: cell-based, human
Conditions: Homo sapiens, NCI-H211, NCI-H211 cells
MEASUREMENT KIND: EC50 (µM)
Give a bare numeral; the unit µM is implied.

Could you tell me which EC50 is on file for COCc1ccccc1NCc1ccc([C@@H]2[C@H](O)CCCc3cncn32)c(-c2ccccc2Cl)c1 [CSN5i-2e] ?
20.6

* * *

Tested on: panel of cancer cell lines
Experiment: Cell viability (CellTiter-Glo) dose-response across cancer cell line panel;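 further: after 72 h compound incubation with CellTiter-Glo ATP readout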
Type: cell-based, human
Conditions: Homo sapiens, HEC-59
MEASUREMENT KIND: pEC50
pEC50 here is simply -log10 of the concentration when that concentration is written in mol/L.

Entry `CC(C)C[C@H](NC(=O)[C@H](Cc1ccccc1)NC(=O)c1cnccn1)B(O)O` : reported pEC50 = ?
8.14

* * *

System: panel of cancer cell lines
Test: Cell viability (CellTiter-Glo) dose-response across cancer cell line panel;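 further: after 72 h compound incubation with CellTiter-Glo ATP readout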
Assay type: cell-based, human
Conditions: Homo sapiens, SNU-449, SNU-449 cells
Protocol: Next, we explored the effect of CSN5 inhibition on the viability of cancer cells. […] A standardized CellTiter-Glo Assay (Promega #G7570) based on the quantification of ATP was applied according to the manufacturer's protocol to measure the amount of viable cells in culture. […] EC50 values were calculated from the plot of percentage of inhibition versus inhibitor concentration using the nonlinear regression analysis software Origin 7.5SR6 (OriginLab Corp.).
MEASUREMENT KIND: EC50 (µM)
State the answer as a number, implicitly in µM.

What measured EC50 goes with COCc1ccccc1NCc1ccc([C@@H]2[C@H](O)CCCc3cncn32)c(-c2ccccc2Cl)c1 [CSN5i-2e] ?
25.6

* * *

Tested on: panel of cancer cell lines
Assay: Cell viability (CellTiter-Glo) dose-response across cancer cell line panel;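 further: after 72 h compound incubation with CellTiter-Glo ATP readout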
Type: cell-based, human
Conditions: Homo sapiens, SW480, SW480 cells
MEASUREMENT KIND: pEC50
Bear in mind: pEC50 is minus log10 of a mol/L concentration; give just that figure.

I would be grateful if you could share the reported pEC50 for `COCc1ccccc1NCc1ccc([C@@H]2[C@H](O)CCCc3cncn32)c(-c2ccccc2Cl)c1` .
5.02
